Test system: A498
methodSummary: NCI tumour cell line growth inhibition, 48 h
Calls of active or inactive are those of the source. Cut-off read from the data, not from the text of the source: active = GI50 up to about 1.1 µM and inactive = higher.
experimentalEndpoint: GI50

{"compound": "O=C1NC(=N/c2ccccc2)/C(=N\\c2ccccc2)N1c1ccccc1", "experimentalEndpoint": "GI50", "resultValue": "17.2 µM (inactive)"}
{"compound": "Nc1ccc2nc3ccc(N)cc3[n+](-c3ccccc3)c2c1", "experimentalEndpoint": "GI50", "resultValue": "> 100 µM (inactive)"}
{"compound": "COC(=O)C1(CCCCCBr)CCCCCCCCCCC1=O (stereo not given)", "experimentalEndpoint": "GI50", "resultValue": "28.3 µM (inactive)"}
{"compound": "N#CC1C=Cc2ccccc2N1C(=O)Oc1ccccc1 (stereo not given)", "experimentalEndpoint": "GI50", "resultValue": "33.1 µM (inactive)"}
{"compound": "CCN1C/C(=C\\c2ccc(Cl)cc2)c2[nH]c(=O)c(C#N)c(-c3ccc(Cl)cc3)c2C1", "experimentalEndpoint": "GI50", "resultValue": "> 100 µM (inactive)"}
{"compound": "Cc1ccc2c(c1)C1C(CO2)C(c2ccccc2)=NN1c1ccccc1 (stereo not given)", "experimentalEndpoint": "GI50", "resultValue": "> 100 µM (inactive)"}
{"compound": "CC(=O)CC(=O)Nc1ccc(OS(N)(=O)=O)cc1", "experimentalEndpoint": "GI50", "resultValue": "> 100 µM (inactive)"}
{"compound": "CCOC(=O)c1c(Br)c(-c2ccc([N+](=O)[O-])cc2)c(Br)n1C", "experimentalEndpoint": "GI50", "resultValue": "> 10 µM (inactive)"}
{"compound": "O=CC1=C(C(=O)OC(c2ccccc2)c2ccccc2)N2C(=O)[C@@H](NC(=O)Cc3cccs3)[C@H]2SC1", "experimentalEndpoint": "GI50", "resultValue": "> 100 µM (inactive)"}
{"compound": "CC(=O)c1ccc(NC(=O)/C(CC(=O)c2sc(-c3cccnc3)nc2C)=N/NC(N)=O)cc1", "experimentalEndpoint": "GI50", "resultValue": "31.5 µM (inactive)"}

Entry source: ChEMBL document CHEMBL1201862
